experimentalParameters: pH 2.7
Marks after values point to notes of the source that are not given here.
Entries annotated with measured Log P

These recorded examples may help you get a feel for the data.
CCOC(=O)C(C#N)=C(NC(C)C(C)CC)c1cccnc1Cl (stereo not shown) [Compound 1525] : 3.76^[a]
CCOC(=O)C(C#N)=C(NC[Si](C)(C)C)c1cn(C)nc1C(F)F [Compound 1126] : 3.35^[a]
CCOC(=O)C(C#N)=C(NC(C)CSc1ccc(Cl)cc1)c1cccnc1Cl (stereo not shown) [Compound 1156] : 4.08^[a]
CCOC(=O)C(C#N)=C(NCc1ccc(Cl)cc1)c1cn(C)nc1C(F)F [Compound 555] : 3.31^[a]
CCOC(=O)C(C#N)=C(NC(C(=O)OC)C(C)C)c1sc(Cl)nc1Cl (stereo not shown) [Compound 710] : 3.82^[a]

Which Log P value belongs to CCOC(=O)C(C#N)=C(NCC#N)c1sc(C)nc1C(F)(F)F [Compound 790] ? 2.35^[a]

Could you tell me which Log P is on file for CCOC(=O)C(C#N)=C(NC(C)CN(C)C)c1nsc(Cl)c1Cl (racemic) [Compound 588] ? 1.41^[a]

# input compound: COC(=O)C(C#N)=C(NC(C)C1CCCO1)c1cccnc1Cl (stereo not shown) [Compound 126] ; wanted: its Log P 2.17^[a]

* * *

experimentalParameters: pH 2.7
Marks after values point to notes of the source that are not given here.
A collection of compounds and their measured Log P

Sample CCOC(=O)C(C#N)=C(Nc1ccccc1SC)c1cn(C)nc1C(F)F — what was its Log P? 3.13^[a]

Field request: Log P | item: CCOC(=O)C(C#N)=C(NC(C)CCCC(C)C)c1cn(C)nc1C(F)F (stereo not drawn) 4.26^[a]

Entry under review: CCOC(=O)C(C#N)=C(Nc1ccc(SC)cc1)c1cccnc1Cl . Reported Log P? 3.37^[a]

* * *

experimentalParameters: pH 2.7
Marks after values point to notes of the source that are not given here.
valueType: Log P

Example entries and their recorded answers appear below.
CCOC(=O)C(C#N)=C(NC(C)c1ccc(Cl)cc1)c1cn(C)nc1C(C)F (mixture of isomers) [Compound 520] : 3.64^[a]
CCOC(=O)C(C#N)=C(NC1CCCCC1C)c1cn(C)nc1C(F)F (stereo not shown) [Compound 1122] : 3.6^[a]
CCOC(=O)C(C#N)=C(NC(C)(C)C#CCOC)c1sccc1C(F)(F)F [Compound 1099] : 3.55^[a]
CCOC(=O)C(C#N)=C(NC(C)Cc1c[nH]c2ccccc12)c1c(C)nn(C)c1F (racemic) [Compound 46] : 3.07^[a]
CCOC(=O)C(C#N)=C(NC(C)C(C)C)c1cccnc1Cl (stereo not shown) [Compound 952] : 3.37
CC(C)C(C)NC(=C(C#N)C(=O)N1CCCO1)c1cccnc1Cl (stereo not shown) [Compound 1612] : 2.55^[a]

May I ask what Log P has been recorded for CCOC(=O)C(C#N)=C(NC(C)C(C)(C)C)c1sc(C)nc1C(F)(F)F (racemic) [Compound 922] ? 4.21^[a]

* * *

experimentalParameters: pH 7.5
Marks after values point to notes of the source that are not given here.
valueType: Log P

Known Log P results, listed for orientation:
CCOC(=O)C(C#N)=C(NC(C)C(C)C)c1ccc(Cl)nc1Cl (stereo not drawn) : 3.85^[c]; 3.85^[b]
C=CCOC(=O)C(C#N)=C(Nc1ccccc1SC)c1cccnc1Cl : 3.32^[c]; 3.32^[b]

Next compound, please.
Log P lookup needed for CCONC(=O)C(C#N)=C(NC(C)C(C)C)c1cccnc1Cl (stereo not drawn) , thanks. 2.44^[c]; 2.44^[b]

* * *

experimentalParameters: pH 2.3
Marks after values point to notes of the source that are not given here.
valueType: Log P

Some solved entries appear below for comparison.
CCOC(=O)C(C#N)=C(NC(C)C1CC1)c1cccnc1OCc1ccccc1 (stereo not drawn) : 3.08^[c]; 3.08^[b]
CC(C)C(C)NC(=C(C#N)C(=O)NC1CSC1)c1cccnc1Cl (stereo not drawn) : 3.22^[c]; 3.22^[b]

Fill in: Log P of CC(C)C(C)NC(=O)C(C#N)=C(NC(C)C(C)C)c1cccnc1Cl (stereo not drawn) is ___ 4.02^[c]; 4.02^[b]

* * *

// reported Log P per item
experimentalParameters: pH 7.5
Marks after values point to notes of the source that are not given here.

Solved entries:
CSCC(C)NC(=C(C#N)C(=O)OC(C)C)c1cccnc1Cl (stereo not drawn) [Compound 597] : 3.03
COC(=O)C(C#N)=C(NCc1ncccn1)c1cccnc1Cl [Compound 13] : 1.57^[c]; 1.57^[b]
CC(C)C(C)NC(=C(C#N)C(=O)NC1CCC1)c1cccnc1Cl (stereo not drawn) [Compound 1453] : 3.44^[c]; 3.44^[b]
C=CCOc1ncccc1C(NC(C)c1nccs1)=C(C#N)C(=O)OCC (racemic) [Compound 1506] : 2.03^[c]; 2.03^[b]

# Log P lookup, item CCOC(=O)C(C#N)=C(Nc1ccc(F)c(F)c1)c1cccnc1Cl [Compound 1597] 2.96

Look up Log P for this molecule: CC(C)C(C)NC(=C(C#N)C(=O)NC1CSC1)c1cccnc1Cl (stereo not drawn) [Compound 1452] 3.22^[c]; 3.22^[b]

* * *

experimentalParameters: pH 7.5
valueType: Log P

CCOC(=O)C(C#N)=C(NC(C)c1ccccn1)c1ccc(Cl)nc1Cl (stereo not shown) : 3.06
CCN(C)C(=O)C(C#N)=C(NC(C)C(C)C)c1cccnc1Cl (stereo not shown) : 2.9
CCNC(=O)C(C#N)=C(NC(C)c1nccs1)c1cccnc1Cl (stereo not shown) : 2.05
CC(NC(=C(C#N)C(=O)OC(C)C(F)(F)F)c1cccnc1Cl)c1nccs1 (mixture of isomers) : 2.94
CCOC(=O)C(C#N)=C(NC(C)C(C)C)c1cccnc1C (stereo not shown) : 2.89
CCOC(=O)C(C#N)=C(NC(C)CBr)c1cccnc1Cl (stereo not shown) : 2.79
COC(=O)C(C#N)=C(NC(C)C1CC1)c1cccnc1Cl (mixture of isomers) : 2.58
CCOC(=O)C(C#N)=C(NC1CC2CCC1C2)c1cccnc1Cl (stereo not shown) : 3.57
C=CCONC(=O)C(C#N)=C(NC(C)C(C)C)c1cccnc1Cl (stereo not shown) : 2.62

* * *

experimentalParameters: pH 2.7
Marks after values point to notes of the source that are not given here.
valueType: Log P

Solved cases (2 shown):
CCOC(=O)C(C#N)=C(NC1CC1C(F)(F)F)c1cn(C)nc1C(F)F (stereo not drawn) : 2.75^[a]
CCCC(CO)NC(=C(C#N)C(=O)OCC)c1cn(C)nc1C(F)F (stereo not drawn) : 2.28^[a]

The record that follows has no Log P shown yet.
// returns reported Log P for input CCOC(=O)C(C#N)=C(NC(C)c1c(Cl)cccc1Cl)c1scnc1Cl (stereo not drawn) 4^[a]

* * *

experimentalParameters: pH 2.7
Marks after values point to notes of the source that are not given here.
valueType: Log P

Would you please look over these solved cases?
C=CC(COCc1ccccc1)NC(=C(C#N)C(=O)OCC)c1sccc1C(F)(F)F (stereo not shown) [Compound 688] : 4.36^[a]
CCOC(=O)C(C#N)=C(NCC1(C)CCCO1)c1cccnc1Cl (stereo not shown) [Compound 1357] : 2.7^[a]
COC(=O)C(C#N)=C(NC(C)Cc1c[nH]c2ccccc12)c1cn(C)nc1C(F)F (racemic) [Compound 57] : 3^[a]

Reported Log P, molecule C=CCNC(=C(C#N)C(=O)OCC)c1cn(C)nc1C(F)F [Compound 1127] : ____ 2.35^[a]

* * *

experimentalParameters: pH 2.7
Marks after values point to notes of the source that are not given here.
Below, each of the molecules is paired with its reported Log P value.

Here's what some known entries look like.
CCNC(=O)C(C#N)=C(NC(C)c1nccs1)c1cccnc1Cl (centres unmarked) : 2.07
CCOC(=O)C(C#N)=C(NC(C)CN(C)C)c1sccc1C(F)(F)F (centres unmarked) : 1.63^[a]
CCOC(=O)C(C#N)=C(NC(C)c1nccs1)c1ccnc(Cl)c1Cl (centres unmarked) [Compound 1276] : 2.96

What value of Log P has been reported for the following molecule? CCOC(=O)C(C#N)=C(NC(C)C(C)C)c1nsc(Cl)c1Cl (centres unmarked) 4.39^[a]

Recorded Log P of CC(C)CNC(=O)C(C#N)=C(NC(C)C(C)C)c1cccnc1Cl (centres unmarked) , please. 3.74^[a]

I have this molecule here, CCOC(=O)C(C#N)=C(NC(C)CC(C)C)c1ccsc1Br (racemic) , and I need its recorded Log P. 4.41^[a]

For CCOC(=O)C(C#N)=C(NC(C)C1CC1)c1sccc1C(F)(F)F (centres unmarked) , what is its reported Log P? 3.83^[a]

Look up Log P for this molecule: CC(NC(=C(C#N)C(=O)NCCF)c1cccnc1Cl)c1nccs1 (racemic) 2^[a]

Look at this molecule and give its reported Log P. CC(C)C(C)NC(=C(C#N)C(=O)Nc1ccccn1)c1cccnc1Cl (centres unmarked) 3.21^[a]

Value lookup for Log P; key = CCOC(=O)C(C#N)=C(NC(C)C1CC1)c1cn(C)nc1C(C)F (racemic) 2.84^[a]

Look up Log P for this molecule: CCCC(COCC)NC(=C(C#N)C(=O)OCC)c1cn(C)nc1C(F)F (centres unmarked) 3.44^[a]

For the molecule shown here, CCOC(=O)C(C#N)=C(NC(C)Cc1c[nH]c2ccccc12)c1c(C(F)F)nn(C)c1Cl (racemic) , give the reported Log P. 3.42^[a]

Entry under review: CCOC(=O)C(C#N)=C(NC(C)c1cscn1)c1cccnc1Cl (racemic) . Reported Log P? 2.4^[a]

Can you look up the measured Log P of CCOC(=O)C(C#N)=C(NC(C)C(C)C)c1ccnc(C)c1F (centres unmarked) for me? 3.31^[a]
